experiment: yeast display, Sf9 membrane polyspecificity reagent, FACS + sequencing; frameworks hold sequencing errors
ATTRIBUTE_MEASURED: polyreactivity (PSR sort gate)

>  <SEQUENCE_CHAIN>
QVQLVVSGGGLVQAGGSLRLSCAASGSTFQYNAMGWYRQAPGKERELVAAISTGTSTYYADSVKGRFTISRDNAKNTVYLQLNSLKTEVTAVYYCAAEYWGDYTEYNYWGHGTQVTVSS

>  <RESULT>
high polyreactivity

$$$$
>  <SEQUENCE_CHAIN>
QVQLVESCGGLVQAGGSLRLSCAASGIIFPPYAMGWYRPAPGKERELVAAITRSGASTYYADSVKGRFTISRDNAKNTVYLQMNSLKPEDTAVYYCAVGVPGGYWKDYYWGQGTQVTVSS

>  <RESULT>
high polyreactivity

$$$$
>  <SEQUENCE_CHAIN>
QVQLVESGGGLVEEGGSLRLSCAASGSIFYRNDMGWYRQAPGKERELVAAISWSGGRTYYADSVKGRFTISRDNAKNTVYLQMNSLKPEDTAVYYCAAFRHRQSSDNGYDYWGQGTQVTVSS

>  <RESULT>
high polyreactivity

$$$$
>  <SEQUENCE_CHAIN>
QVQLVESGGGLVQAGVRLRLSCADSGSTFYLNAIGWYRQAPGKERELVAAITRVGRTYYADSVKGRFTISRDNAKNTVYLQMNSLKPEDTAVYYCNALGHYKLWGLGTQVTVSS

>  <RESULT>
high polyreactivity

$$$$
>  <SEQUENCE_CHAIN>
QVQLVESGGGLVQAGGSLRLSCAASGSTFYPYAMGWYRQAPGKERELVAAIDRGGSTSYADSVKGRFTISRDNAKNTVYLQMNSLKPEDTAVYYCAVARGGRRKYEYWGQGTQVTVSS

>  <RESULT>
low polyreactivity

$$$$
>  <SEQUENCE_CHAIN>
QVQLVESGGGLVQAGGSLRLSCAASGFTFWYYAMGWYRQAPGKERELVAAIDSGVTRTYYADSVKGRFTISRDNAKNTVYLQMNSLKPEDTAVYYCNADFVWRGDYWGQGTQVTVSS

>  <RESULT>
low polyreactivity

$$$$
>  <SEQUENCE_CHAIN>
QVQLVESGGGLVQAGGSLRLSCAASGSTFGRYAMGCYIQAPGKERELVAAITRSGGRTYYADSVKGRFTISRDNAKNTVYLQMNSLIPEDTAVYYCAARSRRRFDWGQGTQVTVSS

>  <RESULT>
high polyreactivity

$$$$
>  <SEQUENCE_CHAIN>
QVQLVESGGGLVQAGGSLRLSCAASGRIFNRYAMGWYRQAPGKERELVAAITTSADSTYADSVKGRFTISRDNAKNTVYLQMNSLKPEDTAVYYCNVASRQGSTYDYWGQGTQVTVSS

>  <RESULT>
high polyreactivity

$$$$
>  <SEQUENCE_CHAIN>
QVQLVESGGGLVQAGGSLRLSCAASGSIFLAYAMGWYRQAPGKERELVAAITAGTGSTYYADSVKGRFTISRDNAKNTVYLQMNSLKPEDTAVYYCAKAVSLFRGPFSSFDYWGQGTQVTVSS

>  <RESULT>
low polyreactivity

$$$$
>  <SEQUENCE_CHAIN>
QVQLVESGGGLVQAGGSLRLSCAAYGSIFYFNAMGWYRQAPGKERELVAAITYNGGSTRYADSVKGRFTISRDNAKNTVYLQMNSLKPEDTAVYYCAARAKYGPEDGYWGQGTQVTVSS

>  <RESULT>
high polyreactivity

$$$$
>  <SEQUENCE_CHAIN>
QVQLVESGGGLVQAGGSLRLSCAASGSIFYVNTMVWYRQAPGKERELVAGITSRGGSTYYADSVKGRFTISRDNAKNSVYLQMNSLKPEDTAVYYCAKRAYGTALYRGYGYWGQGTQVTVSS

>  <RESULT>
low polyreactivity

$$$$

###

assay: yeast display, Sf9 membrane polyspecificity reagent, FACS + sequencing; frameworks hold sequencing errors
ATTRIBUTE_MEASURED: polyreactivity (PSR sort gate)

>  <SEQUENCE_CHAIN>
QVQLVESGGGLVQAGGSLRLSCAASGSIFTQYAMGWYRQAPGKERELVARITGSGGRTYYADSVKGRFTISRDNAKNTVYLQMNSLKPEDTAVYYCAARDVRPYYVKPPVRYYYWGQGTQVTVSS

>  <RESULT>
high polyreactivity

$$$$
>  <SEQUENCE_CHAIN>
QVQLVESGGGLVQAGGSLRLSCAASGIIFDYNAMGWYRQAPGKERELVAAISGRSGRTYYADSVKGRFTISRDNAKNTVYLQMNSLKPEDTAVYYCAARWYAGGNYWGQGTQVTVSS

>  <RESULT>
high polyreactivity

$$$$

###

assay: yeast display, Sf9 membrane polyspecificity reagent, FACS + sequencing; frameworks hold sequencing errors
ATTRIBUTE_MEASURED: polyreactivity (PSR sort gate)

>  <SEQUENCE_CHAIN>
IIQEGGSLRLSCAASGRTFSGYAMGWYRQAPGKERELIADITSGGSTYYADSVKGRFTISRDNAKNTVYLQMNSLKPEDTAVYYCAAERQIRSFWSSRTYEFGYWGQGTQVTVSS

>  <ATTRIBUTE_MEASURED>
polyreactivity (PSR sort gate)

>  <RESULT>
low polyreactivity

$$$$
>  <SEQUENCE_CHAIN>
QVQLVESGGGLVQAGGSLRLSCAASGSTSGKNAMGWYRQAPGKERELVAAIRNSGGTTYYADSVKGRFTISRDNAKNTVYLQMNSLKPEDTAVYYCATRYYLKFLDGYNYWGQGTQVTVSS

>  <ATTRIBUTE_MEASURED>
polyreactivity (PSR sort gate)

>  <RESULT>
high polyreactivity

$$$$
>  <SEQUENCE_CHAIN>
QVQLVESGGGLVQAGGSLRLSCAASGIIFRWYAMGWYRQAPGKERELVAAITRSGGSTYYADSVKGRFTISRDNAKNTVYLQMNSLKPEDTAVYYCAAEYYAPSYKFDYWGQGTQVTVSS

>  <ATTRIBUTE_MEASURED>
polyreactivity (PSR sort gate)

>  <RESULT>
high polyreactivity

$$$$
>  <SEQUENCE_CHAIN>
QVQLVESGGGLVQAGGSLRLSCAASGSIFRVYAMGWYRQAPGKEREFVAAITRRGTRTYYADSVKGRFTISRDNAKNTDYLQMNSLKPEDTAVYYCAAYFTDGLYEYWGQGTQVTVSS

>  <ATTRIBUTE_MEASURED>
polyreactivity (PSR sort gate)

>  <RESULT>
low polyreactivity

$$$$
>  <SEQUENCE_CHAIN>
QVQLVESGGGLVQAGGSLRLSCAASGRTFQYYTMGWYRQAPGKEREFVAALRDSGGSTYYADSVKGRFTISRDNAKNTVYLQMNSLKPEDTAVYYCAAYRPRKYDYWGQGTQVTVSS

>  <ATTRIBUTE_MEASURED>
polyreactivity (PSR sort gate)

>  <RESULT>
high polyreactivity

$$$$

###

assay: yeast display, Sf9 membrane polyspecificity reagent, FACS + sequencing; frameworks hold sequencing errors

>  <SEQUENCE_CHAIN>
QVQLVESGGGLVQAGGSLRLSCAASGLTFPSYAMGWYRQAPGKERELVAVISSSGGRTYYADSVKGRFTISRDNAKNTVYLQMNSLIPEDTAVYYCNVGGFLRRRSYDYWGQGTQVTVSS

>  <polyreactivity (PSR sort gate)>
high polyreactivity

$$$$
>  <SEQUENCE_CHAIN>
QVQLVESGGGLVQAGGSLRLSCAASGRTFRYYAMGWYRQAPGKERELVASITSGGRTYYADSVKGRFTISRDNAKNTVYLQMNSLKPEDTAVYYCAASTRYEGNYWGQGTQVTVSS

>  <polyreactivity (PSR sort gate)>
high polyreactivity

$$$$
>  <SEQUENCE_CHAIN>
QVQLVESGGGLVQAGGSLRLSCAASGSTFSYYTMGWYRQAPGKEREFVAAISNSGSRTYYADSVKGRFTISRDNAKNTVYLQMNSLKPEDTAVYYCNAAYGYRFPRDYWGQGTQVIVSS

>  <polyreactivity (PSR sort gate)>
high polyreactivity

$$$$

###

experiment: yeast display, Sf9 membrane polyspecificity reagent, FACS + sequencing; frameworks hold sequencing errors
ATTRIBUTE_MEASURED: polyreactivity (PSR sort gate)

>  <SEQUENCE_CHAIN>
QVQLVESGGGLVQAGGSLRLSCAASGLTFDKYTMGWYRQAPGKERELVARISTSGSRTYYADSVKGRFTISRDNAKNTVYLQMNSLKPEDTAVYYCNKDGWIRRRRGYDYWGQGTQVTVSS

>  <ATTRIBUTE_MEASURED>
polyreactivity (PSR sort gate)

>  <RESULT>
high polyreactivity

$$$$
>  <SEQUENCE_CHAIN>
QVQLVESGGGLVQAGGSLRLSCAASGRIFQGYAMGWYRQAPGKERELVARITSGSNTNYADSVKGRFTISRDNAKNTVYLQMNSLKPEDTAVYYCAKEPVGSVRYGRFQQDDYWGQGTQVTVSS

>  <ATTRIBUTE_MEASURED>
polyreactivity (PSR sort gate)

>  <RESULT>
low polyreactivity

$$$$
>  <SEQUENCE_CHAIN>
QVQLVESGGGLVQAGGSLRLSCAASGSIIGSNAMGWYRQAPGKERELVAAISRSGTRTYYADSVKGRFTISRDNAKNTVYLQMNSLKPEDTAVYYCATRGGGYWGQGTQVTVSS

>  <ATTRIBUTE_MEASURED>
polyreactivity (PSR sort gate)

>  <RESULT>
high polyreactivity

$$$$
>  <SEQUENCE_CHAIN>
QVQLVESGGGLVQAGGSLRLSCAASGFIFAYNAMGWYRQAPGKERELVAGISRRGGSTYYADSVKGRFTISRDNAKNTVYLQMNSLKPEDTAVYYCAADSFTYWSWLHGYWGQGTQVTVSS

>  <ATTRIBUTE_MEASURED>
polyreactivity (PSR sort gate)

>  <RESULT>
high polyreactivity

$$$$
>  <SEQUENCE_CHAIN>
QVQLVESGGGLVQAGGSLRLSCAASGSTIYSYAMGWYRQAPGKERELVAAISWSGARTYYADSVKGRFTISRDIAKNTVYLQMNSLKPEDTAVYYCAASGYYSSHMDYWGQGTQVTVSS

>  <ATTRIBUTE_MEASURED>
polyreactivity (PSR sort gate)

>  <RESULT>
high polyreactivity

$$$$
>  <SEQUENCE_CHAIN>
QVQLVESGGGLVQAGGSLRLSCAASGSTFHRNAMGWYRQAPGKERELVAAISWRGGSTYYADSVKGRFTISRDNAKNNVYLLMNSLKPEDTAVYYCNAVERYWDYGYWGQGTQVTVSS

>  <ATTRIBUTE_MEASURED>
polyreactivity (PSR sort gate)

>  <RESULT>
low polyreactivity

$$$$
>  <SEQUENCE_CHAIN>
QVQLVESGGGLVQAGGSLRLSCAASGFIFDLYAMGWSRQAPGKERELVAAITYSGGSTYYADSVKGRFTISRDNAKNTVYLQMNSLKPEDTAVYYCAAYYGGRGYWGQGTQVTVSS

>  <ATTRIBUTE_MEASURED>
polyreactivity (PSR sort gate)

>  <RESULT>
low polyreactivity

$$$$
>  <SEQUENCE_CHAIN>
QDQLVESGGGLVQAGGSLRLSCAASGFIFYSNAMGWYRQEPGKERELVAAITSGGGSTYYADSVKGRFTISRDTAKNTVYLQMNSLKPEDTAVDYCAVSIGRYPYRYGYWGQGTQVTVSS

>  <ATTRIBUTE_MEASURED>
polyreactivity (PSR sort gate)

>  <RESULT>
high polyreactivity

$$$$
>  <SEQUENCE_CHAIN>
QVQLVESGGGLVQAGGSLRLSCDAYGSIFRLYAMGWFRQAPGKEREFVAAIDKRGGRTHYADSVKGRFTISRDNAKNTVYLQITSLKPEDTAVYYCAAKAYVVTNGHGKLDYWGQGPQVTVSS

>  <ATTRIBUTE_MEASURED>
polyreactivity (PSR sort gate)

>  <RESULT>
high polyreactivity

$$$$
>  <SEQUENCE_CHAIN>
QVQHDQSGGGLVQAGGSLRLSCAASGRTFKPYVMGRYREAPGKERELVAAISSRGDITYYADSVKGRFTITRDNAKNTVYLQMNSLKPEDTAVYYCNAGPAVRSAYSTPYYDYWGQGTQVTVSS

>  <ATTRIBUTE_MEASURED>
polyreactivity (PSR sort gate)

>  <RESULT>
low polyreactivity

$$$$
>  <SEQUENCE_CHAIN>
QVQLVESGGALVQAGGSLRLSCAASGSIFVSNAMGWYRQAPGKERELVAAISQSGGSTYYADSVKGRFTISRDNAKNTVYLQMNSLKPEDTAVYYCATPIRSGFRIYDYWGQGTQVNVSS

>  <ATTRIBUTE_MEASURED>
polyreactivity (PSR sort gate)

>  <RESULT>
low polyreactivity

$$$$
